This collection of values is drawn from patent US8519007B2.

testedSystem: androgen receptor (Homo sapiens, UniProt P10275)
Sequence (P10275 with tags, fused parts or gaps DUP590-628/H875Y): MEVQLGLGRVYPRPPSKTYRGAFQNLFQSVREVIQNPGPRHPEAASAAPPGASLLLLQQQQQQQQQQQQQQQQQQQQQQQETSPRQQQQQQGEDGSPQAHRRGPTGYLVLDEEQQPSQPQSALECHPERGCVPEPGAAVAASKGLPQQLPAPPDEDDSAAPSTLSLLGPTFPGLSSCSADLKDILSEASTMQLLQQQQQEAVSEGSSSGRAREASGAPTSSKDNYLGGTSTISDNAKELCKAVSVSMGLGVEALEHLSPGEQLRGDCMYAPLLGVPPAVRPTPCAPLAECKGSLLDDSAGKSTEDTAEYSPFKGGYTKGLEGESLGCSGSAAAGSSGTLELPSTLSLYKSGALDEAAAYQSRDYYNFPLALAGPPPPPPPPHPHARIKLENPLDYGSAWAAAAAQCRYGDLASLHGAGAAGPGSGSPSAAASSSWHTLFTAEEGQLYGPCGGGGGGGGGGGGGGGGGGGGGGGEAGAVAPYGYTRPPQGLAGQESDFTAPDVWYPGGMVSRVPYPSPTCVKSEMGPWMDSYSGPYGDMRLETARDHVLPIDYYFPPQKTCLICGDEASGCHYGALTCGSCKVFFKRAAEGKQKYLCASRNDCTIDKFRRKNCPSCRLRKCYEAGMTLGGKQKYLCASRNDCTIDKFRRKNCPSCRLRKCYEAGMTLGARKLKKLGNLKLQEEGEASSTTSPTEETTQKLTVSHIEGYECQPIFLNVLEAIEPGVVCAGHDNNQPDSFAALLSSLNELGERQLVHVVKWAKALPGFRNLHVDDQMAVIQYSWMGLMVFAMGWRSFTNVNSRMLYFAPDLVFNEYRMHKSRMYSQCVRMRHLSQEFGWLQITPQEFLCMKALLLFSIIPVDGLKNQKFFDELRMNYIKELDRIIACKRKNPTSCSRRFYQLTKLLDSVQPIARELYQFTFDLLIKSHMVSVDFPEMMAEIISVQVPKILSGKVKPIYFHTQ
testDetails: PSA promoter luciferase reporter assay in 103E cells (AR transcriptional activity)
appliedConditions: read-out: IC50 for inhibiting DHT-induced PSA-luciferase reporter, cotreated with 10 nmol/L DHT, 24 h
quantityKind: pIC50
pIC50 (log units): -log10 of the concentration in mol/L.

QUERY: Note pIC50 for the molecule shown: "CC(C)c1cc2c(cc1O)[C@@]1(C)CCCC(C)(C)C1=C(O)C2=O"
RESULT: 5.32

---

testDetails: HDHS levels in plasma and tumors of treated nude mice (HPLC)
Type: in vivo
appliedConditions: athymic (nu/nu) nude, mouse, in vivo, oral 0.5 mg/kg, 24 h after the last of 24 doses, read-out: HDHS level in plasma
quantityKind: concentration at 24 h after the last dose (nM)
Give the value, in units of nM, as a plain number.

QUERY: Supply concentration at 24 h after the last dose value. Item: CC(C)c1cc2c(cc1O)[C@@]1(C)CCCC(C)(C)C1=C(O)C2=O [Compound 2]
RESULT: 450

---

System: PC-3 cells
testDetails: Colony-forming growth assay
Assay type: cell-based
appliedConditions: Homo sapiens, 288 h; PC-3, 12 days; read-out: IC50 (anti-proliferation potency), colony growth
quantityKind: pIC50
# log scale: pIC50 equals minus log10 of the concentration in mol/L

QUERY: Specify measured pIC50 for "CC(C)c1cc2c(cc1O)[C@@]1(C)CCCC(C)(C)C1=C(O)C2=O" .
RESULT: 4.88
